system: RXF 393 renal; experiment: NCI tumour cell line growth inhibition, 48 h
assay-readout: GI50

Task: Find the recorded GI50 belonging to CC(C)(Oc1cccc(N2CCC[C@@H](C(=O)N(Cc3ccc(-c4cn[nH]c4)cc3)C3CC3)C2)c1)C(=O)N1CCNCC1 and report it.
Output: 1.85 µM

Task: I have this compound here, N#C/C(=C\c1ccc(O)c(O)c1)C(=O)NCc1cccc(C(F)(F)F)c1 , and I need its recorded GI50.
Output: 17.3 µM

Task: Entry COc1cc2c3c(n(CCCNCCCCN)c(=O)c2cc1OC)-c1cc2c(cc1C3=O)OCO2 has what GI50?
Output: 0.301 µM

Task: Name the recorded GI50 for CN1C(=O)[C@@H](CC2CCCC2)N(C2CCCC2)c2nc(Nc3cc(Cl)c(O)c(Cl)c3)ncc21 .
Output: 13.5 µM

Task: So what's the measured GI50 for this one? [pH]1p2[pH]p3p1p3[pH]2.c1cc[c]([Ge]([c]2ccccc2)[c]2ccccc2)cc1.c1cc[c]([Ge]([c]2ccccc2)[c]2ccccc2)cc1.c1cc[c]([Ge]([c]2ccccc2)[c]2ccccc2)cc1
Output: 64.9 µM

Task: What value of GI50 has been reported for the following compound? O=C(O)C1CC[N-]CC1.O=C(O)C1CC[N-]CC1.[NH2-].[NH2-].[Pt+4]
Output: > 100 µM

Task: Quick check: GI50 of CN1CCC(=C(c2ccc(Cl)cc2)c2ccccn2)CC1 ?
Output: 54.5 µM

Task: Which measured GI50 value corresponds to CCN(CC)Cc1cc(Nc2ccnc3ccc(OC)cc23)ccc1O ?
Output: 2.79 µM

src = PubChem BioAssay (NCI)
